B1: Osa-1-4 twister ribozyme (parent)
chain: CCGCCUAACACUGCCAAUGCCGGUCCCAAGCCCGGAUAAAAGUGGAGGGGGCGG

Variants of: B1
test: self-cleavage, relative activity (ratio to wild type); higher = more cleavage; co-transcriptional
experimentalReadout: self-cleavage
Number, no unit, nothing else.

Before answering, review these 3 worked examples.
- mutationString: "G19U G44C"
  self-cleavage: 0.34
- mutationString: "A41G U37C"
  self-cleavage: 0.59
- mutationString: "A7G C21U"
  self-cleavage: 0.23

// query Hello, please tell me recorded self-cleavage for this one: C25U C9U
// result 0.33

// query Consider the variant A38U U43A and give its recorded self-cleavage.
// result 0.95

// query Provide only the value of recorded self-cleavage for C26A G35A
// result 0.06

// query Supply self-cleavage value. Item: A16G C11U
// result 0.95

// query Specify self-cleavage for A17U G34C and stop.
// result 0.5

// query Return the recorded self-cleavage value; entry: A40U C32A
// result 0.07

// query Supply reported self-cleavage belonging to this variant: A39C G13U
// result 0.03
